- TGT: Carbonic anhydrase 2 (Homo sapiens, UniProt P00918)
- METHOD_DESCRIPTION: Inhibition of recombinant human CA2 cytosolic isoform preincubated for 15 mins by stopped-flow CO2 hydration assay
ENDPOINT_NAME: Ki (µM)
Form entry: value (µM) — number only.

[
  {
    "MOLECULE": "S=C(S)OC1CC2CC1C1CCCC21 (configuration not stated)",
    "ENDPOINT_VALUE": 0.0066
  }
]

Task: Recorded Ki of S=C(S)OC1CCCC1 , please.
Result: 0.366

====

Entries and their measured pKi follow.
- TGT: Carbonic anhydrase 9 (Homo sapiens)
- METHOD_DESCRIPTION: Inhibition of recombinant human CA9 transmembrane isoform preincubated for 15 mins by stopped-flow CO2 hydration assay
API: returns pKi as number; meaning -log10 of concentration in mol/L.

[
  {
    "MOLECULE": "CC(C)(C)OC(=O)NCCCCOC(=S)[S-].[K+]",
    "TGT": "Carbonic anhydrase 9 (Homo sapiens)",
    "pKi": 6.21
  }
]

Task: What measured pKi is associated with CN(C)CCOC(=S)S on Carbonic anhydrase 9 (Homo sapiens)?
Result: 6.12

Task: Form entry - test system: Carbonic anhydrase 9 (Homo sapiens); read-out: pKi; molecule: CC(C)(C)OC(=O)NCCCCCCOC(=S)S
Result: 6.12

Task: Query pKi on Carbonic anhydrase 9 (Homo sapiens) for CC(C)OC(=S)S
Result: 6.27

Task: Any idea what pKi came out for CCCCCOC(=S)S on Carbonic anhydrase 9 (Homo sapiens)?
Result: 6.39

Task: Find the measured pKi: item CC(C)CCOC(=S)S , target or system Carbonic anhydrase 9 (Homo sapiens).
Result: 6.49

Task: Hello, I am looking for reported pKi with Carbonic anhydrase 9 (Homo sapiens) for S=C(S)OC1CCCCC1 . Could you help?
Result: 7.10

====

- TGT: Carbonic anhydrase 9 (Homo sapiens)
- METHOD_DESCRIPTION: Inhibition of recombinant human CA9 transmembrane isoform preincubated for 15 mins by stopped-flow CO2 hydration assay
Reported pKi values for the following molecules.
The value called pKi is obtained by taking minus log10 of the concentration in mol/L.

[
  {
    "MOLECULE": "S=C(S)OC1CCCC1",
    "ENDPOINT_VALUE": 7.33
  },
  {
    "MOLECULE": "S=C(S)SCc1ccccc1",
    "ENDPOINT_VALUE": 8.11
  },
  {
    "MOLECULE": "N#CNC(=S)S",
    "ENDPOINT_VALUE": 6.17
  },
  {
    "MOLECULE": "S=C(S)OCC12CC3CC(CC(C3)C1)C2",
    "ENDPOINT_VALUE": 6.11
  },
  {
    "MOLECULE": "COC(=S)S",
    "ENDPOINT_VALUE": 6.20
  },
  {
    "MOLECULE": "S=C([S-])OCCc1ccccn1.[K+]",
    "ENDPOINT_VALUE": 8.37
  }
]

Task: Fill in: pKi of CCCCCCCCOC(=S)S is ___
Result: 7.14

Task: Reported pKi for S=C(S)OCc1ccccc1 : what is it?
Result: 8.09

Task: Item S=C([S-])OCC(c1ccccc1)c1ccccc1.[K+] has what recorded pKi?
Result: 7.24

Task: Given the molecule CN(C)CCOCCOC(=S)[S-].[K+] , what is its reported pKi?
Result: 6.08

Task: Please look up its pKi: S=C([S-])OCCC12CC3CC(CC(C3)C1)C2.[K+]
Result: 6.11

Task: Recorded pKi of CCOC(=S)S , please.
Result: 6.25

Task: Which pKi reading was recorded for the molecule S=C(S)OC1CC2CC1C1CCCC21 (stereo not drawn) ?
Result: 6.19
